Parameter combination Emax: see the listing below.
System: HCC1143 (Breast Carcinoma)
Test: combination Emax (second highest fraction inhibited in the dose matrix, 72 h); higher = more inhibition; extreme values may be limits of the assay
Lab note: jot down the number only; don't add units.

CCc1c2c(nc3ccc(O)cc13)-c1cc3c(c(=O)n1C2)COC(=O)[C@]3(O)CC [SN-38] + CN(C)CCCOc1ccc(-c2ccc3ncc4c(c3c2)n(C2CCOCC2)c(=O)n4C)cn1 [AZD0156] (first compound max 0.3 µM, 7x7, partner max 1 µM)
0.662
CN(CCO)CC[C@H](CSc1ccccc1)Nc1ccc(S(=O)(=O)NC(=O)c2ccc(N3CCC([C@@H](O)c4ccccc4-c4ccc(Cl)cc4)CC3)cc2)cc1S(=O)(=O)C(F)(F)F [AZD4320] + C[C@@H](Nc1cc(F)cc(F)c1)c1cc(C(=O)N(C)C)cc2c(=O)cc(N3CCOCC3)oc12 [AZD8186] (first compound max 1 µM, 7x7, partner max 3 µM)
0.418

Kindly review the next compound as well.
Task item: Item CC1(C)CCC(CN2CCN(c3ccc(C(=O)NS(=O)(=O)c4ccc(NCC5CCOCC5)c([N+](=O)[O-])c4)c(Oc4cnc5[nH]ccc5c4)c3)CC2)=C(c2ccc(Cl)cc2)C1 [Venetoclax] + CCN(CCO)CCCOc1ccc2c(Nc3cc(CC(=O)Nc4cccc(F)c4)[nH]n3)ncnc2c1 [AZD2811] (first compound max 1 µM, 7x7, partner max 1 µM) has what recorded combination Emax?
Reply: 0.318
